Assignment: determine reported IC50 for the given molecules.
# Tested On: FL hMALT1 enzyme (Homo sapiens)
# Assay Notes: biochemical
Record the value in nM, omitting the unit from your answer.

Query CN(C(=O)C1CCNCC1)[C@@H](c1ccc(NC2Cc3ccccc3C2(C)C)nc1)C(F)(F)F (single isomer, unassigned) [Example 148] yields IC50 of 290

Query CN1CC(C(=O)N(C)C(c2ccc(NC3Cc4ccccc4C3(C)C)nc2)C(F)(F)F)C1 (single isomer, unassigned) [Example 95] yields IC50 of 640

Query CN(C(=O)C1CCS(=O)(=O)CC1)[C@@H](c1ccc(NC2Cc3ccc(Cl)cc3C2)nc1)C(F)(F)F (single isomer, unassigned) [Example 289] yields IC50 of 45

###

Assignment: determine reported pIC50 for the given molecules.
# Tested On: FL hMALT1 enzyme (Homo sapiens);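 note: Cell-free protease assay: enzyme preincubated with compound 30 min at room temperature, then cleavage of fluorogenic Ac-LVSR-AMC substrate (100 µM) tracked by fluorescence (ex 360/em 460 nm)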
# Sequence (Q9UDY8 1-824): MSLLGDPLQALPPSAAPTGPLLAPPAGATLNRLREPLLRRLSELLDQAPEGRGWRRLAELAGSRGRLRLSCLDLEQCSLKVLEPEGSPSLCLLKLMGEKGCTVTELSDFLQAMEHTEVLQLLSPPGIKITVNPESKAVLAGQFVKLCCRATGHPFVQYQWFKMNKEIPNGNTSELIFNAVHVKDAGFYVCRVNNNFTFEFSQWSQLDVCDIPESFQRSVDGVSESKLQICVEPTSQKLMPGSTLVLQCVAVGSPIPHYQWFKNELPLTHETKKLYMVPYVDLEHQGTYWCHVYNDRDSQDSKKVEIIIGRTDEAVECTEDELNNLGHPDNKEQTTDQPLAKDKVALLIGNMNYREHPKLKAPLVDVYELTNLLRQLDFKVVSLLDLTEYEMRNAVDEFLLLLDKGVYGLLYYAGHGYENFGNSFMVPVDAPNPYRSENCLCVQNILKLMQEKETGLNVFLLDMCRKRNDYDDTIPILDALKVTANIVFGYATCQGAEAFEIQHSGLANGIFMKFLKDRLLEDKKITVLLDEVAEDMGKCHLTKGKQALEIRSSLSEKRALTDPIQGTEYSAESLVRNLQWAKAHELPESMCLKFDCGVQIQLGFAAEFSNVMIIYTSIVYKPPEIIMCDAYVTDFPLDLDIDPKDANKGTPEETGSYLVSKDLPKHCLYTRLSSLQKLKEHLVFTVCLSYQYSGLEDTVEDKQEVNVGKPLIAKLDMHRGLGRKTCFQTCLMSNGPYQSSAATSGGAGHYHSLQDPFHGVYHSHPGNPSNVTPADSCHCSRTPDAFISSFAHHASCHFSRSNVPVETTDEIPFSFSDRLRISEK
# Assay Notes: biochemical
Note: pIC50 values are expressed as the negative base-10 logarithm of concentration in M.

Query CN(C(=O)C1CCS(=O)(=O)CC1)[C@@H](c1ccc(NC2Cc3cc(F)cc(F)c3C2)cn1)C(F)(F)F (single isomer, unassigned) [Example 269] yields pIC50 of 6.82

Query CN(C(=O)[C@H]1CCC(=O)NC1)[C@@H](c1ccc(NC2Cc3ccc(Cl)c(F)c3C2)nc1)C(F)(F)F (single isomer, unassigned) [Example 389] yields pIC50 of 7.40

Query CN(C(=O)C1CCNCC1)[C@@H](c1ccc(NC2Cc3ccccc3C2)cc1)C(F)(F)F (single isomer, unassigned) yields pIC50 of 6.09

Query CC(=O)NCC(=O)N(C)[C@@H](c1ccc(NC2Cc3ccccc3C2(C)C)cc1)C(F)(F)F (single isomer, unassigned) [Example 40] yields pIC50 of 7.11

Query CN(C(=O)C1CC2(CCC(=O)N2)C1)[C@@H](c1ccc(NC2Cc3ccccc3C2(C)C)cn1)C(F)(F)F (single isomer, unassigned) [Example 232] yields pIC50 of 7.52

Query CNS(=O)(=O)CCCC(=O)N(C)[C@@H](c1ccc(NC2Cc3ccccc3C2(C)C)cc1)C(F)(F)F (single isomer, unassigned) [Example 65] yields pIC50 of 7.35

Query CN(C(=O)C1CCC(=O)NC1)[C@@H](c1ccc(NC2Cc3ccccc3C2(C)C)cn1)C(F)(F)F (single isomer, unassigned) [Example 107] yields pIC50 of 7.35

Query CN(C(=O)CCO)[C@@H](c1ccc(NC2Cc3ccccc3C2(C)C)cc1)C(F)(F)F (single isomer, unassigned) [Example 34] yields pIC50 of 7.07

Query CNC(=O)N1CC(C(=O)N(C)[C@@H](c2ccc(NC3Cc4ccccc4C3(C)C)cn2)C(F)(F)F)C1 (single isomer, unassigned) [Example 227] yields pIC50 of 7.74

Query CN(C(=O)C1CCS(=O)(=O)CC1)[C@@H](c1ccc(NC2Cc3cc(Cl)cc(Cl)c3C2)cn1)C(F)(F)F (single isomer, unassigned) [Example 282] yields pIC50 of 6.47

Query CN(C(=O)C1CC2(CCC(=O)N2)C1)[C@@H](c1ccc(NC2Cc3ccccc3C2(C)C)cn1)C(F)(F)F (single isomer, unassigned) [Example 231] yields pIC50 of 6.96

Query CC1c2ccccc2C(C)C1Nc1ccc([C@H](N(C)C(=O)C2CCS(=O)(=O)CC2)C(F)(F)F)cc1 (stereo partly drawn) yields pIC50 of 7.80
